# Tested on: rice (Oryza sativa L.)
# experiment_summary: Test Example 1: foliar treatment, upland pot
# Assay type: in vivo
# setup_conditions: 7 g/ha, 21st day after application, crop
# Description: Upland field soil was put into a 1/170,000 hectare pot, and seeds of various plants were sown. […]
Reported Growth inhibition rate (%) Rice values follow for various compounds
Provide a numeric answer, followed by its unit.

Here's what some known entries look like.
compound	Growth inhibition rate (%) Rice
CCOC(=O)OC(C)Oc1c(C(=O)c2ccc(S(C)(=O)=O)c(COCC(F)(F)F)c2C)cnn1C (racemic)	40%
CCOC(=O)OC(C)Oc1c(C(=O)c2ccc(S(C)(=O)=O)c(OCCOC)c2C)cnn1CC (racemic)	80%
CCOC(=O)OC(C)Oc1c(C(=O)c2ccc(S(C)(=O)=O)c(OCCOC)c2C)cnn1C (stereo not drawn)	80%
CCCOC(=O)OC(C)Oc1c(C(=O)c2ccc(S(C)(=O)=O)c(OCCOC)c2C)cnn1C (racemic)	80%
CCOC(=O)OC(C)Oc1c(C(=O)c2ccc(S(C)(=O)=O)c(C(=O)OC)c2C)cnn1C (racemic)	80%
CCOC(=O)OC(C)Oc1c(C(=O)c2ccc(S(C)(=O)=O)c(COC)c2C)cnn1C (racemic)	70%

Write Growth inhibition rate (%) Rice of COCCOc1c(S(C)(=O)=O)ccc(C(=O)c2cnn(C)c2OC(C)OC(=O)OC(C)C)c1C (racemic) ; system used: rice (Oryza sativa L.)
30%

Recall the reported Growth inhibition rate (%) Rice of CCOC(=O)OC(C)Oc1c(C(=O)c2ccc(S(C)(=O)=O)c(OCCOC)c2C)c(C)nn1C (racemic) when tested on rice (Oryza sativa L.).
80%

For rice (Oryza sativa L.), give Growth inhibition rate (%) Rice of the listed compound: CCOC(=O)OC(C)Oc1c(C(=O)c2ccc(S(C)(=O)=O)c(OCCOC)c2C)cnn1C(C)C (racemic)
70%

###

# Tested on: velvetleaf (Abutilon theophrasti MEDIC.)
# experiment_summary: Test Example 1: foliar treatment, upland pot
# Type: in vivo
# setup_conditions: 7 g/ha, 21st day after application
Listed here are molecules together with their documented Growth inhibition rate (%) Velvetleaf.
Kindly answer with a numeric value in %, unit omitted.

molecule	Growth inhibition rate (%) Velvetleaf
CCOC(=O)OC(C)Oc1c(C(=O)c2ccc(S(C)(=O)=O)c(C(=O)OC)c2C)cnn1C (racemic)	85
CCOC(=O)OC(C)Oc1c(C(=O)c2ccc(S(C)(=O)=O)c(OCCOC)c2C)cnn1C(C)C (racemic)	95
CCOC(=O)OC(C)Oc1c(C(=O)c2ccc(S(C)(=O)=O)c(COCC(F)(F)F)c2C)cnn1C (racemic)	98
CCCOC(=O)OC(C)Oc1c(C(=O)c2ccc(S(C)(=O)=O)c(OCCOC)c2C)cnn1C (racemic)	95

Lab note: record Growth inhibition rate (%) Velvetleaf of COCCOc1c(S(C)(=O)=O)ccc(C(=O)c2cnn(C)c2OC(C)OC(=O)OC(C)C)c1C (racemic) tested on velvetleaf (Abutilon theophrasti MEDIC.).
98

###

# System: velvetleaf (Abutilon theophrasti MEDIC.)
# experiment_summary: Test Example 1: foliar treatment, upland pot
# Format: in vivo
# setup_conditions: 7 g/ha, 21st day after application
Each entry below lists one item and its recorded Growth inhibition rate (%) Velvetleaf value.
Only the number, expressed in %, is required.

Solved cases (2 shown):
compound	uom	Growth inhibition rate (%) Velvetleaf
CCOC(=O)OC(C)Oc1c(C(=O)c2ccc(S(C)(=O)=O)c(OCCOC)c2C)c(C)nn1C (racemic) [compound 11]	%	60
CCOC(=O)OC(C)Oc1c(C(=O)c2ccc(S(C)(=O)=O)c(COC)c2C)cnn1C (racemic) [compound 7]	%	98

Below: the item to evaluate.
For velvetleaf (Abutilon theophrasti MEDIC.), give Growth inhibition rate (%) Velvetleaf of the listed compound: CCOC(=O)OC(C)Oc1c(C(=O)c2ccc(S(C)(=O)=O)c(OCCOC)c2C)cnn1CC (racemic) [compound 3]
90
